target: HLA-C*04:01; assay: thermal melting temperature (Tm) of peptide-HLA complex; higher = more thermostable pHLA complex; details: C1R-A*02:01
reported.property: thermal melting temperature (°C)
Answer in °C, number only, no unit symbol.

In: # get_value(readout='thermal melting temperature', item= SYDHVELTF )
Out: 51.3

In: # get_value(readout='thermal melting temperature', item= SFDLLPREF )
Out: 54.7

In: # get_value(readout='thermal melting temperature', item= GGSFDVADRMF )
Out: 53.1

In: # get_value(readout='thermal melting temperature', item= IFDQSGTYL )
Out: 53.4

In: # get_value(readout='thermal melting temperature', item= VFHVQQTEM )
Out: 53.8

In: # get_value(readout='thermal melting temperature', item= IFDRVLTEL )
Out: 51.3

In: # get_value(readout='thermal melting temperature', item= RFDSDVGEF )
Out: 54.9

In: # get_value(readout='thermal melting temperature', item= HFDLSVIEL )
Out: 57.1
